Would you kindly list Ki for each of these compounds?
biological target: MOR (Rattus norvegicus); construct: from tissue; assay: Opioid receptor binding, MOR, rat brain membranes; details: Binding Ki MOR, Table 1-4, rat brain membranes
Sequence (P33535 whole entry): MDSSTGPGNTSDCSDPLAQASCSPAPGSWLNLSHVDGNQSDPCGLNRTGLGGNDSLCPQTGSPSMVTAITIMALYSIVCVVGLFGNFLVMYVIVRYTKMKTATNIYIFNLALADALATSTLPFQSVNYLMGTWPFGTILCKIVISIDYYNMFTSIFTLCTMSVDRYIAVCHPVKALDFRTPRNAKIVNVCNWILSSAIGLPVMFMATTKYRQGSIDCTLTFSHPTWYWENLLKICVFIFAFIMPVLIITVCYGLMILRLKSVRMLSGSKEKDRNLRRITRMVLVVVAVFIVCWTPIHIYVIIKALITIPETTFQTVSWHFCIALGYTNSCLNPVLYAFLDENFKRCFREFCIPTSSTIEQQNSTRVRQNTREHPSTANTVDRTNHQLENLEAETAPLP
Numbers only; they are read as nM.

Please look up its Ki: "CO[C@@]12CC[C@@H](N[C@@H](CCSC)C(=O)O)[C@@H]3Oc4c(O)ccc5c4[C@@]31CCN(C)[C@@H]2C5" 3.88

Please look up its Ki: "CN1CC[C@]23c4c5ccc(O)c4O[C@H]2[C@@H](N[C@@H](Cc2ccccc2)C(=O)O)CC[C@@]3(O)[C@H]1C5" 2.3

Please look up its Ki: COC12CCC(NC(C(=O)O)C(C)C)C3Oc4c(O)ccc5c4C31CCN(C)C2C5 (single isomer, unassigned) [Compound 30] 1.7
